Hello, the source for this data is ChEMBL document CHEMBL1149315, in case you need it.

Biological target: Substance-P receptor (Cavia porcellus) (UniProt P30547)
Sequence (P30547 whole entry): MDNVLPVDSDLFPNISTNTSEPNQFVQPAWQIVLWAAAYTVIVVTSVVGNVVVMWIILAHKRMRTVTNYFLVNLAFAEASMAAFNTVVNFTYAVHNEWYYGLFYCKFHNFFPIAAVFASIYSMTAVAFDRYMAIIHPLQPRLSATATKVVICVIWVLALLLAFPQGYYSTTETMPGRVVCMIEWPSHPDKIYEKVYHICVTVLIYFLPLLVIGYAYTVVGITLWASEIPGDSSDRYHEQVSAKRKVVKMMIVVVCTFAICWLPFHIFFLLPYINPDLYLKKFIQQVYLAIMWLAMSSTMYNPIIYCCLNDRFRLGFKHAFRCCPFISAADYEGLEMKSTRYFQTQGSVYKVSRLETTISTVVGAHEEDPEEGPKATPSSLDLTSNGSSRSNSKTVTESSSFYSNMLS
Assay: Antagonist activity at NK1 receptor in guinea pig ileum assessed as effect on substance P methyl ester-induced mechanical activity
Type: functional, tissue-based
Conditions: filed as antagonist
Experimental Endpoint: pKb

>>> df
                                   molecule  value_reported
0  O=C1C[C@@H](NC2CCOCC2)C(=O)NC[C@@H](Cc2ccccc2)NC(=O)[C@H](Cc2ccccc2)NC(=O)[C@H](Cc2c[nH]c3ccccc23)N1             6.1
1  O=C1C[C@@H](NC(=O)CN2CCC(N3CCCCC3)CC2)C(=O)NC[C@@H](Cc2ccccc2)NC(=O)[C@H](Cc2ccccc2)NC(=O)[C@H](Cc2c[nH]c3ccccc23)N1             6.8
2  O=C1C[C@@H](N2CCOCC2)C(=O)NC[C@@H](Cc2ccccc2)NC(=O)[C@H](Cc2ccccc2)NC(=O)[C@H](Cc2c[nH]c3ccccc23)N1             6.2
3  O=C1C[C@@H](NC(=O)CN2CCC(N3CCOCC3)CC2)C(=O)NC[C@@H](Cc2ccccc2)NC(=O)[C@H](Cc2ccccc2)NC(=O)[C@H](Cc2c[nH]c3ccccc23)N1             7.5
